Values were extracted from ChEMBL document CHEMBL4689842.

A collection of compounds and their measured Population Healthy Nuclei (%)
System: U2OS
Test: Multiplex assay against U2OS
Assay type: toxicity, cell-based
Test Settings: human, 12 h, 10 µM, compound concentration 10 uM, replicate 2
# output: bare number, implied unit %

Worked set:
Compound	Reading Unit	Val
c1cn2cc(-c3ccc4cn[nH]c4c3)nc(Nc3ccc(N4CCOCC4)cc3)c2n1	%	2
C=CC(=O)Nc1cccc(C(=O)Nc2ccc(Nc3cc(-c4[nH]c(SC)nc4C)ccn3)cc2)c1	%	83
C[C@@H](NCCCc1cccc(C(F)(F)F)c1)c1cccc2ccccc12.Cl [CINACALCET HYDROCHLORIDE]	%	23

With those in mind, consider the next compound.
[in] So what's the measured Population Healthy Nuclei (%) for this one? CC(C)(O)CNc1ncc(-c2ccnc(Nc3ccnc(Cl)c3)n2)c(CC2CC2)n1
[out] 64

* * *

Tested on: HEK-293T
Test: Multiplex assay against HEK293T
Type: toxicity, cell-based
Test Settings: human, 12 h, 1 µM, compound concentration 1 uM, replicate 1
# Population Apoptotic (%) >= 50% gives Criterion met, anything below gives Criterion not met

Molecule	Classification
CNc1nc(NCc2ccc(NS(C)(=O)=O)cc2Cl)cc(-c2ccccn2)n1	Criterion met
Cc1[nH]c(/C=C2\C(=O)Nc3ccc(S(=O)(=O)N(C)c4cccc(Cl)c4)cc32)c(C)c1C(=O)N1CCN(C)CC1	Criterion met
C[C@@H](NCCCc1cccc(C(F)(F)F)c1)c1cccc2ccccc12.Cl [CINACALCET HYDROCHLORIDE]	Criterion not met
COc1cccc([C@@H](C)NCCCc2ccccc2Cl)c1.Cl [TECALCET HYDROCHLORIDE]	Criterion not met
Cc1nc(-c2cn3c(n2)-c2ccc(-c4cnn(C(C)(C)C(N)=O)c4)cc2OCC3)n(C(C)C)n1	Criterion not met
Cc1c(-c2ccc(O)cc2)n(Cc2ccc(OCCN3CCCCCC3)cc2)c2ccc(O)cc12	Criterion not met
CC(C)NCC(O)COc1ccc(CCOCC2CC2)cc1.Cl (stereo not drawn) [BETAXOLOL HYDROCHLORIDE]	Criterion not met
COc1ncc(-c2ccc3nccc(-c4ccnnc4)c3c2)cc1NS(=O)(=O)c1ccc(F)cc1F	Criterion met
O=C1NCN(c2ccccc2)C12CCN(CCCOc1ccc(F)cc1)CC2 [SPIRAMIDE]	Criterion not met
C=CC(=O)Nc1cc2c(Nc3ccc(F)c(Cl)c3)ncnc2cc1OCCCN1CCOCC1.Cl.Cl [CANERTINIB DIHYDROCHLORIDE]	Criterion met

[in] Evaluate CC(C)C(=O)Nc1n[nH]c2cc(-c3cccc(NS(=O)(=O)C4CC4)c3)ccc12 : Population Apoptotic (%) at minimum 50%?
[out] Criterion not met

[in] Evaluate Cc1cc(C)cc(-c2cnc3cc(Cl)c(-c4cccc(O)c4)cc3c2OCCCN)c1 : Population Apoptotic (%) at minimum 50%?
[out] Criterion met

[in] Evaluate c1cn2cc(-c3ccc4cn[nH]c4c3)nc(Nc3ccc(N4CCOCC4)cc3)c2n1 : Population Apoptotic (%) at minimum 50%?
[out] Criterion met

[in] Evaluate C=CC(=O)Nc1ccc2ncnc(Nc3ccc(OCc4cccc(F)c4)c(Cl)c3)c2c1.Cc1ccc(S(=O)(=O)O)cc1 : Population Apoptotic (%) at minimum 50%?
[out] Criterion met

[in] Evaluate Cc1csc2c(N[C@@H](C)CN3CCN(S(=O)(=O)c4ccc(Cl)c(Cl)c4)CC3)ncnc12 : Population Apoptotic (%) at minimum 50%?
[out] Criterion met

[in] Evaluate CN(C)C(=O)/C(C#N)=C/c1ccc(-c2nc3cnc4[nH]ccc4c3n2C2CCCCC2)o1 : Population Apoptotic (%) at minimum 50%?
[out] Criterion not met

[in] Evaluate CC(C)(O)CNc1ncc(-c2ccnc(Nc3ccnc(Cl)c3)n2)c(CC2CC2)n1 : Population Apoptotic (%) at minimum 50%?
[out] Criterion met

[in] Evaluate Cl.N#Cc1ccc2[nH]cc(CCCCN3CCN(c4ccc5oc(C(N)=O)cc5c4)CC3)c2c1 [VILAZODONE HYDROCHLORIDE] : Population Apoptotic (%) at minimum 50%?
[out] Criterion met

[in] Evaluate CN1CCN(c2ccc(OC(F)(F)F)c(Nc3ncc4c(n3)-c3c(c(C(N)=O)nn3CCO)CC4)c2)CC1 : Population Apoptotic (%) at minimum 50%?
[out] Criterion met

[in] Evaluate CC[C@H](C)C(=O)O[C@H]1C[C@@H](C)C=C2C=C[C@H](C)[C@H](CC[C@@H]3C[C@@H](O)CC(=O)O3)[C@H]21 : Population Apoptotic (%) at minimum 50%?
[out] Criterion not met

[in] Evaluate CCN(CC)CCCCNc1ncc2cc(-c3cc(OC)cc(OC)c3)c(NC(=O)NC(C)(C)C)nc2n1 : Population Apoptotic (%) at minimum 50%?
[out] Criterion not met
